# Tested on: Ri-1 cells
# testName: BTK (wt) cell proliferation, Ri-1 (CellTiter-Glo, 72 h)
# Format: cell-based
# experimentalSetup: Ri-1, 72 h, Ri-1 cells, 72 h, CellTiter-Glo; read-out: BTK WT Ri-1 GI50
reportedEndpoint: log10 of GI50 (log10 of the value in µM)
Values below are the log10 of the recorded GI50, with µM as the unit.

Can you share its log10 of GI50? I mean this molecule: C=CC(=O)Nc1cc(Nc2nccc(Nc3cc(Cl)c(F)cc3C(C)(C)O)n2)c(OC)cc1N1CC[C@@H]1CN(C)C
-1.77

Can you share its log10 of GI50? I mean this molecule: C=CC(=O)Nc1cc(Nc2ncnc(Nc3ccc4[nH]ccc4c3C(C)(C)O)n2)c(OC)cc1N(C)CCN(C)C
-0.68

Given C=CC(=O)Nc1cc(Nc2ncnc(Nc3cc(F)c(F)cc3C(C)(C)O)n2)c(OC)cc1N1CC(CN(C)C)C1 , state its recorded log10 of GI50.
-2.43

Given the entry C=CC(=O)Nc1cc(Nc2ncnc(Nc3cc(Cl)c(F)cc3C(C)(C)O)n2)c(OC)cc1N1CC[C@H](N(C)C)C1 , report its measured log10 of GI50.
-1.41

What does the record list as log10 of GI50 for C=CC(=O)Nc1cc(Nc2ncnc(Nc3cc(C4CC4)c(F)cc3C(C)(C)O)n2)c(OC)cc1N(C)CCN(C)C ?
-0.60

Look at this molecule and give its reported log10 of GI50. C=CC(=O)Nc1cc(Nc2ncnc(Nc3cc(F)c(Cl)cc3C(C)(C)O)n2)c(OC)cc1N1CCC[C@@H]1CN(C)C
-1.55

Consider the molecule shown here: C=CC(=O)Nc1cc(Nc2ncnc(Nc3cc(Cl)c(F)cc3C(C)(C)O)n2)c(OC)cc1N1C[C@@H](F)[C@@H](N(C)C)C1 What is its recorded log10 of GI50?
-2.49

====

# experimentalTarget: WT EGFR (Homo sapiens)
# Sequence (P00533 25-1210): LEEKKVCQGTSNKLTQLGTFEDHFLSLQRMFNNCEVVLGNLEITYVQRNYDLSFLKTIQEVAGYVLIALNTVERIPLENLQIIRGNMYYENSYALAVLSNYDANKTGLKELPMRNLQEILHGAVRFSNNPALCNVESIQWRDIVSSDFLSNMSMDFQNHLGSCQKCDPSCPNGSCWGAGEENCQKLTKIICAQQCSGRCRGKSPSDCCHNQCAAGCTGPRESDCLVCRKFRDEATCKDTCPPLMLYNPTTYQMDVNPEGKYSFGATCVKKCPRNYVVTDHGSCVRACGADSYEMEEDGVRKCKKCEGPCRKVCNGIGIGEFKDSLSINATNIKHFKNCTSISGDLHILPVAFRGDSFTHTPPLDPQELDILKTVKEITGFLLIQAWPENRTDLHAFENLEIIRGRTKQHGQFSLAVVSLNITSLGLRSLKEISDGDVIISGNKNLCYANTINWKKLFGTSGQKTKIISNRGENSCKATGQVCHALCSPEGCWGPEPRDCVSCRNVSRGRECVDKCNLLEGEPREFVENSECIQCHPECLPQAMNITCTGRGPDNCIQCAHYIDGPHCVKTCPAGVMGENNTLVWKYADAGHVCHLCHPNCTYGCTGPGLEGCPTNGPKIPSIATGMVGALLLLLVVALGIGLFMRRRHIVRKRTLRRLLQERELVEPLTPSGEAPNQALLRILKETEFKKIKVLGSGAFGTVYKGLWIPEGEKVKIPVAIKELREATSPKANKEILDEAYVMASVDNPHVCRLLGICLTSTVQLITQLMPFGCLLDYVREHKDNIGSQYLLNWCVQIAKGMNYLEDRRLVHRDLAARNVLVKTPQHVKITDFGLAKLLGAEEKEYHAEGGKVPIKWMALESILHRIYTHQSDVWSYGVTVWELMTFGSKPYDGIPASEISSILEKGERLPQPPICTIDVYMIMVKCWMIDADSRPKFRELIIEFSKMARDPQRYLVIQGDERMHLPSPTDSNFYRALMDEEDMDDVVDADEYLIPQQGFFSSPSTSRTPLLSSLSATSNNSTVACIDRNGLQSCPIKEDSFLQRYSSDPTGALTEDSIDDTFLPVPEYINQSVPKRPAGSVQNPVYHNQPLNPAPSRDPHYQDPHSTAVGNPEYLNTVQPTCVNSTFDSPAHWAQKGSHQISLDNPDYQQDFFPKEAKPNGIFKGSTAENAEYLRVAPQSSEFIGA
# testName: WT EGFR cellular phosphorylation inhibition in A-431 (hEGF stimulated, MSD);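 also: electrochemiluminescence read-out of EGFR Tyr1068 phosphorylation expressed as ratio to total EGFR, cells kept in medium with 1% FBS, compounds tested as a concentration series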
# experimentalSetup: A431 cells, 4 h compound, then 100 ng/ml hEGF 10 min
Counter-ions that a name gives are not always drawn.
I'd appreciate it if you could supply pIC50 values for the items below.
A value of pIC50 is the negative decimal logarithm of a concentration given in moles per litre.

Fill in the recorded pIC50 for this molecule, with WT EGFR (Homo sapiens) as test system: C=CC(=O)Nc1cc(Nc2ncnc(Nc3cc(Cl)c(F)cc3C(C)(O)CC)n2)c(OC)cc1N(C)CCN(C)C (stereo not drawn)
7.58

// map C=CC(=O)Nc1cc(Nc2ncnc(Nc3cc(Cl)c(F)cc3C(C)(O)CC)n2)c(OC)cc1N1CC[C@@H](N(C)C)C1 (stereo partly drawn) [Compound 59] to recorded pIC50 (system: WT EGFR (Homo sapiens))
7.59

Given the entry C=CC(=O)Nc1cc(Nc2ncnc(Nc3cc(Cl)c(Cl)cc3C(C)(C)O)n2)c(OC)cc1N1CC[C@@H]1CN(C)C , what pIC50 was observed with WT EGFR (Homo sapiens)?
7.22

Field: pIC50 (WT EGFR (Homo sapiens)). Entry: C=CC(=O)Nc1cc(Nc2ncnc(Nc3ccc4[nH]ccc4c3C(C)(C)O)n2)c(OC)cc1N(C)CCN(C)C
7.54

GET /values?readout=pIC50&system=WT EGFR (Homo sapiens)&item= C=CC(=O)Nc1cc(Nc2ncnc(Nc3cc(F)c(F)cc3C(C)(O)CC)n2)c(OC)cc1N1CCC[C@H]1CN(C)C (stereo partly drawn)
6.20

Param readout = pIC50; param system = WT EGFR (Homo sapiens); param query = C=CC(=O)Nc1cc(Nc2ncnc(Nc3ccccc3C(C)(C)O)n2)c(OC)cc1N1CCC[C@@H](N(C)C)C1 ; response: value
6.22

Give WT EGFR (Homo sapiens) pIC50 for C=CC(=O)Nc1cc(Nc2ncnc(Nc3cc(Cl)c(F)cc3C(C)(C)O)n2)c(OC)cc1N1CC[C@@H](NC)C1
7.56

Which pIC50 is reported with WT EGFR (Homo sapiens) for this entry: C=CC(=O)Nc1cc(Nc2ncnc(Nc3cc(F)c(Cl)cc3C(C)(C)O)n2)c(OC)cc1N1CC[C@@H]2CN(C)C[C@@H]21 ?
7.88

API: value(readout= pIC50, system= WT EGFR (Homo sapiens), query= C=CC(=O)Nc1cc(Nc2ncnc(Nc3cc(F)c(F)cc3C(C)(O)CC)n2)c(OC)cc1N1CCC[C@@H]1CN(C)C (stereo partly drawn) )
7.98

Provide the documented pIC50 with WT EGFR (Homo sapiens) as the system for C=CC(=O)Nc1cc(Nc2ncnc(Nc3cc(Cl)c(F)cc3C(C)(C)O)n2)c(OC)cc1N(C)CCN1CCC[C@@H]1C
6.88

Please provide the recorded pIC50 for C=CC(=O)Nc1cc(Nc2nccc(Nc3cc(Cl)c(F)cc3C(C)(C)O)n2)c(OC)cc1N1CC[C@@H](NC)C1 [Compound 80, TFA salt] , tested on WT EGFR (Homo sapiens).
6.46

Notebook entry, WT EGFR (Homo sapiens) assay: pIC50 of C=CC(=O)Nc1cc(Nc2nccc(Nc3cc(Cl)c(Cl)cc3C(C)(C)O)n2)c(OC)cc1N1CC[C@@H]1CN(C)C = ?
6.67

For the record C=CC(=O)Nc1cc(Nc2nccc(Nc3cc(Cl)c(F)cc3C(C)(C)O)n2)c(OC)cc1N1C[C@@H](C)C[C@@H]1CN(C)C , what value of pIC50 is listed for WT EGFR (Homo sapiens)?
6.74

Fill in the recorded pIC50 for this molecule, with WT EGFR (Homo sapiens) as test system: C=CC(=O)Nc1cc(Nc2ncnc(Nc3cc(F)c(F)cc3C(C)(C)O)n2)c(OC)cc1N1CC[C@@H]1CN(C)C
7.53

Given the entry C=CC(=O)Nc1cc(Nc2ncnc(Nc3cc(Cl)c(F)cc3C(C)(O)CC)n2)c(OC)cc1N1CC[C@@H]1CN(C)C (stereo partly drawn) , what pIC50 was observed with WT EGFR (Homo sapiens)?
7.45

Please tell me: pIC50 of C=CC(=O)Nc1cc(Nc2ncnc(Nc3cc(F)c(F)cc3C(C)(C)O)n2)c(OC)cc1N1CC[C@@H]2CN(C)C[C@@H]21 , system WT EGFR (Homo sapiens)?
7.87

Can you look up pIC50 on WT EGFR (Homo sapiens) for COc1cc(N(C)CCN(C)C)c(NC(=O)/C=C/CN(C)C)cc1Nc1ncnc(Nc2cc(F)c(F)cc2C(C)(C)O)n1 ?
7.04

Record lookup: for WT EGFR (Homo sapiens), what pIC50 belongs to C=CC(=O)Nc1cc(Nc2ncnc(Nc3cc(Cl)c(F)cc3C(C)(O)CC)n2)c(OC)cc1N1CC[C@@H](N(C)C)C1 (single isomer, unassigned) [Compound 69] ?
7.25

Give WT EGFR (Homo sapiens) pIC50 for C=CC(=O)Nc1cc(Nc2ncnc(Nc3cc(Cl)c(F)cc3C(C)(C)O)n2)c(OC)cc1N1CC[C@@H](N(C)C)C1
7.91

Under WT EGFR (Homo sapiens): pIC50 value of C=CC(=O)Nc1cc(Nc2ncnc(Nc3ccc(Cl)c(F)c3C(C)(C)O)n2)c(OC)cc1N(C)CCN(C)C ?
7.50

State its pIC50 on WT EGFR (Homo sapiens): C=CC(=O)Nc1cc(Nc2ncnc(Nc3cc(Cl)c(F)cc3C(C)(C)O)n2)c(OC)cc1N1CC[C@H](N(C)C)C1
7.29

====

# Tested on: Ri-1 cells
# testName: BTK (wt) cell proliferation, Ri-1 (CellTiter-Glo, 72 h);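 also: viable cells quantified as cellular ATP luminescence, proliferation normalized to a time-zero plate and the DMSO control, compounds tested across a dilution series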
# Format: cell-based
# experimentalSetup: Ri-1, 72 h, Ri-1 cells, 72 h, CellTiter-Glo; read-out: BTK WT Ri-1 GI50
reportedEndpoint: GI50 (nM)
Number only, in nM; omit the unit.

Quick one: GI50 for C=CC(=O)Nc1cc(Nc2ncnc(Nc3cc(Cl)c(F)cc3C(C)(C)O)n2)c(OC)cc1N1CCC[C@@H]1CN(C)C ?
59.9

Returns the measured GI50 for the input molecule. Input: C=CC(=O)Nc1cc(Nc2nccc(Nc3cc(Cl)c(F)cc3C(C)(C)O)n2)c(OC)cc1N1C[C@@H]2CN(C)C[C@@H]21
25.1

Requested field: GI50. Item: C=CC(=O)Nc1cc(Nc2ncnc(Nc3cc(Cl)c(F)cc3C(C)(C)O)n2)c(OC)cc1N1CC[C@@H]1CN(C)C
1.49

May I ask what GI50 has been recorded for C=CC(=O)Nc1cc(Nc2nccc(Nc3cc(Cl)c(Cl)cc3C(C)(C)O)n2)c(OC)cc1N1CC[C@@H]1CN(C)C ?
23.5

====

# experimentalTarget: human Her2 exon 20 insertion mutation YVMA (Homo sapiens, UniProt P04626, INS775YVMA)
# Sequence (P04626 with tags, fused parts or gaps INS775YVMA): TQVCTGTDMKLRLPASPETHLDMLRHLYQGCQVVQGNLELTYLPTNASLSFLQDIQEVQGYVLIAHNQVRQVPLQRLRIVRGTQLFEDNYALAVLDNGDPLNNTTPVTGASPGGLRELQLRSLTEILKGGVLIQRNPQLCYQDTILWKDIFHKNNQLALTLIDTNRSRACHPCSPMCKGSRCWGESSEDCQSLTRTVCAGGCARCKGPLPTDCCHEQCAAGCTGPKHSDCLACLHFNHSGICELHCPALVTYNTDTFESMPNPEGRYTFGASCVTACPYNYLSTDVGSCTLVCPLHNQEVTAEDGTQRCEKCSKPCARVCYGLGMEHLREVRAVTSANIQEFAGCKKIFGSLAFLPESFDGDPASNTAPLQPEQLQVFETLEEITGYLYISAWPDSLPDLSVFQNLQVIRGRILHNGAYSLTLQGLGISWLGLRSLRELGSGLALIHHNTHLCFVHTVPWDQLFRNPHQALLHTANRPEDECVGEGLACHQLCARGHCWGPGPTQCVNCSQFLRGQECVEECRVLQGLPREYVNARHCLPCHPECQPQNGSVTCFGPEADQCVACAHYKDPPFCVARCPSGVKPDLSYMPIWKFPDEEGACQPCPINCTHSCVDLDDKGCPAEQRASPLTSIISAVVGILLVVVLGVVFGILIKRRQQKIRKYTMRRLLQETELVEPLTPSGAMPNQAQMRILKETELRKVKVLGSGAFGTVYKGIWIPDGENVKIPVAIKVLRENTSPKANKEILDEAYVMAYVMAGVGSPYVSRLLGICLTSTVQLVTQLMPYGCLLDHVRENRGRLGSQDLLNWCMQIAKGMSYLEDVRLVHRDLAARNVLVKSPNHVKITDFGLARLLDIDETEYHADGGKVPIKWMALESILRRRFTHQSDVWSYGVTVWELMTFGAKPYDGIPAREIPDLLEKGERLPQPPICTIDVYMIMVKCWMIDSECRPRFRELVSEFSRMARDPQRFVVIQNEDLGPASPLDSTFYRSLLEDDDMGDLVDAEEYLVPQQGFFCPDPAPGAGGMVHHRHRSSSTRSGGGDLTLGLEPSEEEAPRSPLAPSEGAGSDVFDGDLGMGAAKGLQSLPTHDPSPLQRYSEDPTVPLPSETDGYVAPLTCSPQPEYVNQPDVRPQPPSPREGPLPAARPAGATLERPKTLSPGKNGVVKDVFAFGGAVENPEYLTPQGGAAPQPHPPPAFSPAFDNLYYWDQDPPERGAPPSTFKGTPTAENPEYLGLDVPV
# testName: Her2 Exon 20 YVMA insertion cellular phosphorylation inhibition (MSD p-Her2 Y1248/total Her2);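 also: lentivirally transduced NIH-3T3 cells in 1% FBS medium, electrochemiluminescent MSD read-out, graded compound concentrations at 37 °C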
# experimentalSetup: Her2 YVMAins cells, 4 h compound
Where a name gives a salt, the structure may show the parent alone.
reportedEndpoint: IC50 (nM)
Please reply with the bare figure in nM and do not write the unit itself.

Record C=CC(=O)Nc1cc(Nc2ncnc(Nc3ccc(F)c(F)c3C(C)(C)O)n2)c(OC)cc1N(C)CCN(C)C : what is its IC50 with human Her2 exon 20 insertion mutation YVMA (Homo sapiens, UniProt P04626, INS775YVMA)?
13.9

Which measured IC50 belongs to C=CC(=O)Nc1cc(Nc2ncnc(Nc3cc(Cl)c(F)cc3C(C)(O)CC)n2)c(OC)cc1N1CC[C@@H](N(C)C)C1 (some centres unmarked) [Compound 59] , tested on human Her2 exon 20 insertion mutation YVMA (Homo sapiens, UniProt P04626, INS775YVMA)?
3.5

Observed IC50 on human Her2 exon 20 insertion mutation YVMA (Homo sapiens, UniProt P04626, INS775YVMA) for C=CC(=O)Nc1cc(Nc2ncnc(Nc3ccccc3C(C)(C)O)n2)c(OC)cc1N1CCC[C@@H](N(C)C)C1 , please.
318

Which IC50 is reported with human Her2 exon 20 insertion mutation YVMA (Homo sapiens, UniProt P04626, INS775YVMA) for this entry: C=CC(=O)Nc1cc(Nc2ncnc(Nc3cc(C4CC4)c(F)cc3C(C)(C)O)n2)c(OC)cc1N(C)CCN(C)C ?
10.8

Form field - read-out: IC50; system: human Her2 exon 20 insertion mutation YVMA (Homo sapiens, UniProt P04626, INS775YVMA); submitted item: C=CC(=O)Nc1cc(Nc2nccc(Nc3cc(Cl)c(Cl)cc3C(C)(C)O)n2)c(OC)cc1N1CC[C@@H]1CN(C)C
19.6

Entry C=CC(=O)Nc1cc(Nc2nccc(Nc3cc(Cl)c(F)cc3C(C)(C)O)n2)c(OC)cc1N1CCC[C@@H]1CN1CCC1 [Compound 98, formic acid salt] , system human Her2 exon 20 insertion mutation YVMA (Homo sapiens, UniProt P04626, INS775YVMA): what IC50 was measured?
3.1

What is its IC50 for human Her2 exon 20 insertion mutation YVMA (Homo sapiens, UniProt P04626, INS775YVMA)? Entry: C=CC(=O)Nc1cc(Nc2ncnc(Nc3cc(F)c(F)cc3C(C)(O)CC)n2)c(OC)cc1N1CC[C@@H]2CN(C)C[C@@H]21 (some centres unmarked)
4.4

Write down the reported IC50 of C=CC(=O)Nc1cc(Nc2ncnc(Nc3cc(Cl)c(F)cc3C(C)(C)O)n2)c(OC)cc1N1C[C@@H](F)[C@@H](N(C)C)C1 , test system: human Her2 exon 20 insertion mutation YVMA (Homo sapiens, UniProt P04626, INS775YVMA).
15.1

Tell me reported IC50 for C=CC(=O)Nc1cc(Nc2ncnc(Nc3cc(F)c(Cl)c(F)c3C(C)(C)O)n2)c(OC)cc1N(C)CCN(C)C , tested with human Her2 exon 20 insertion mutation YVMA (Homo sapiens, UniProt P04626, INS775YVMA).
16.5

// fetch human Her2 exon 20 insertion mutation YVMA (Homo sapiens, UniProt P04626, INS775YVMA) IC50 for C=CC(=O)Nc1cc(Nc2ncnc(Nc3ccccc3C3(O)CC3)n2)c(OC)cc1N(C)CCN(C)C
4.6

Hello, I am looking for reported IC50 with human Her2 exon 20 insertion mutation YVMA (Homo sapiens, UniProt P04626, INS775YVMA) for C=CC(=O)Nc1cc(Nc2ncc(OC)c(Nc3cc(Cl)c(F)cc3C(C)(C)O)n2)c(OC)cc1N(C)CCN(C)C . Could you help?
303

Param readout= IC50; system= human Her2 exon 20 insertion mutation YVMA (Homo sapiens, UniProt P04626, INS775YVMA); entry= C=CC(=O)Nc1cc(Nc2ncnc(Nc3cc(Cl)c(Cl)cc3C(C)(C)O)n2)c(OC)cc1N(C)CCN(C)C ; returns value.
3.8

Please provide the recorded IC50 for C=CC(=O)Nc1cc(Nc2ncnc(Nc3cc(F)c(F)cc3C(C)(C)O)n2)c(OC)cc1N(C)CCN1CCCCC1 , tested on human Her2 exon 20 insertion mutation YVMA (Homo sapiens, UniProt P04626, INS775YVMA).
49

Record lookup: for human Her2 exon 20 insertion mutation YVMA (Homo sapiens, UniProt P04626, INS775YVMA), what IC50 belongs to C=CC(=O)Nc1cc(Nc2ncnc(Nc3cc(F)c(F)cc3C(C)(C)O)n2)c(OC)cc1N1CC[C@@H](N(C)C)C1 ?
15.6
